Where do these numbers come from? They come from ChEMBL document CHEMBL3616377.

tested on: HepG2; experiment: Cytotoxicity against human HepG2 cells by MTT assay; format: functional, cell-based
pIC50: −log10 of the molar value.
measurement-type: pIC50

INSERT INTO results (smiles_notation, measurement_type, test_value) VALUES
  ('Cc1ccc(-c2nc(C(=O)Nc3ccccc3)cs2)cc1', 'pIC50', 5.00);

---

system: HeLa; experiment: Cytotoxicity against human HeLa cells after 48 hrs by MTT assay in absence of 10% FBS; format: functional, cell-based
pIC50: −log10 of the molar value.
Overview of recorded pIC50 for various molecules
measurement-type: pIC50

INSERT INTO results (smiles_notation, test_target, value_relation_sign, test_value) VALUES
  ('Cc1ccc(NC(=O)c2csc(-c3c[nH]c4ccccc34)n2)cc1', 'HeLa', '<', 4.00),
  ('O=C(NCc1ccccc1)c1csc(-c2c[nH]c3ccccc23)n1', 'HeLa', '=', 5.02),
  ('COc1ccc(NC(=O)c2csc(-c3c[nH]c4ccc(F)cc34)n2)cc1', 'HeLa', '=', 5.47),
  ('O=C(Nc1ccccc1)c1csc(-c2cn(Cc3ccc(Cl)cc3)c3ccccc23)n1', 'HeLa', '=', 4.61),
  ('COc1cc(NC(=O)c2csc(-c3c[nH]c4ccc(F)cc34)n2)cc(OC)c1OC', 'HeLa', '<', 4.00),
  ('COc1cc(NC(=O)c2csc(-c3cn(Cc4ccc(Cl)cc4)c4ccccc34)n2)cc(OC)c1OC', 'HeLa', '=', 4.04),
  ('COc1cc(NC(=O)c2csc(-c3c[nH]c4ccc(Br)cc34)n2)cc(OC)c1OC', 'HeLa', '=', 4.25),
  ('COc1ccc2[nH]cc(-c3nc(C(=O)Nc4cc(OC)c(OC)c(OC)c4)cs3)c2c1', 'HeLa', '=', 4.53),
  ('O=C(Nc1ccccc1)c1csc(-c2c[nH]c3ccccc23)n1', 'HeLa', '<', 4.00),
  ('COc1ccc(NC(=O)c2csc(-c3cn(Cc4ccc(Cl)cc4)c4ccccc34)n2)cc1', 'HeLa', '<', 4.00);

---

tested on: Bacillus subtilis; assay: Antibacterial activity against Bacillus subtilis MTCC 121 after 18 to 24 hrs by broth microdilution method; type: functional
Overview of recorded MIC for various compounds
measurement-type: MIC (µg/mL)

INSERT INTO assay_data (smiles_notation, test_value) VALUES
  ('COc1ccc(NC(=O)c2csc(-c3c[nH]c4ccc(Br)cc34)n2)cc1', 50),
  ('O=C(Nc1ccccc1)c1csc(-c2cn(Cc3ccc(Cl)cc3)c3ccccc23)n1', 100),
  ('COc1cc(NC(=O)c2csc(-c3c[nH]c4ccccc34)n2)cc(OC)c1OC', 50),
  ('COc1cc(NC(=O)c2csc(-c3c[nH]c4ccc(Br)cc34)n2)cc(OC)c1OC', 12.5),
  ('COc1ccc2[nH]cc(-c3nc(C(=O)Nc4cc(OC)c(OC)c(OC)c4)cs3)c2c1', 50),
  ('O=C(Nc1ccc(F)cc1)c1csc(-c2c[nH]c3ccccc23)n1', 100),
  ('COc1ccc(NC(=O)c2csc(-c3c[nH]c4ccccc34)n2)cc1OC', 50),
  ('COc1ccc(NC(=O)c2csc(-c3c[nH]c4ccccc34)n2)cc1', 100),
  ('COc1cc(NC(=O)c2csc(-c3c[nH]c4ccc(F)cc34)n2)cc(OC)c1OC', 100),
  ('COc1ccc(NC(=O)c2csc(-c3c[nH]c4ccc(F)cc34)n2)cc1', 100),
  ('O=C(O)c1cn(C2CC2)c2cc(N3CCNCC3)c(F)cc2c1=O', 6.25),
  ('COc1ccc(NC(=O)c2csc(-c3cn(Cc4ccc(Cl)cc4)c4ccccc34)n2)cc1', 50),
  ('COc1cc(NC(=O)c2csc(-c3cn(Cc4ccc(Cl)cc4)c4ccccc34)n2)cc(OC)c1OC', 100),
  ('CN(C)c1ccc(NC(=O)c2csc(-c3c[nH]c4ccccc34)n2)cc1', 50);
